Exercise: state measured Macrophage MFI for each of the binders provided.
Biological target: T1, human CD33 (human, UniProt P20138 18-364)
T1 construct: CD33 on human primary dendritic cells, macrophages, monocytes and T cells and on CHO cells expressing recombinant human CD33; also called Siglec-3; hCD33
T1 sequence (P20138 18-364): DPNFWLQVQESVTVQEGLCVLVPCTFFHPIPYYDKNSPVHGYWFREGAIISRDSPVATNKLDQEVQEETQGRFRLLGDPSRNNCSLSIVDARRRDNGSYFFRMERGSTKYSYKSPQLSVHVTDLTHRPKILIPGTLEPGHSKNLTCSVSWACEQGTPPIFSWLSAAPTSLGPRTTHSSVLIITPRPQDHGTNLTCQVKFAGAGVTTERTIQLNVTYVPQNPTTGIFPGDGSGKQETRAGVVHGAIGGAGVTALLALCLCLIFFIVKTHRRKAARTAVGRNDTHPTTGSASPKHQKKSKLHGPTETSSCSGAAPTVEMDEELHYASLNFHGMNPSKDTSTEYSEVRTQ
Assay: flow cytometry, human primary macrophages;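 note: binding of CD33 antibodies at 10 µg/ml to human primary macrophages, 1 h on ice, detected with PE-labelled secondary antibody by flow cytometry, reported as MFI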
Lab note: record the figure alone, no unit after it.

QUERY: Quick one: Macrophage MFI for C-24 (antibody, V domains shown, human IgG1) VH: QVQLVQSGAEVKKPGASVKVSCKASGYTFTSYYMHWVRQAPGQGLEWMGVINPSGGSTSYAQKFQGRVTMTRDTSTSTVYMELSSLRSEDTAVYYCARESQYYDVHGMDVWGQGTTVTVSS VL: DIQMTQSPSSLSASVGDRVTITCRASQSISSYLNWYQQKPGKAPKLLIYAASSLQSGVPSRFSGSGSGTDFTLTISSLQPEDFATYYCQQSVTPPLTFGGGTKVEIK ?
RESULT: 752

QUERY: Quick one: Macrophage MFI for C-44 (antibody, V domains shown, human IgG1) VH: QLQLQESGPGLVKPSETLSLTCTVSGGSISSSSYAWGWIRQPPGKGLEWIGSIYYSGSTYYNPSLKSRVTISVDTSKNQFSLKLSSVTAADTAVYYCAREGYVAAYGMDVWGQGTTVTVSS VL: DIQMTQSPSSLSASVGDRVTITCRASQSISSYLNWYQQKPGKAPKLLIYAASSLQSGVPSRFSGSGSGTDFTLTISSLQPEDFATYYCQQAYYPPWTFGGGTKVEIK ?
RESULT: 892

QUERY: Quick one: Macrophage MFI for C-28 (antibody, V domains shown, human IgG1) VH: EVQLVESGGGLVQPGGSLRLSCAASGFTFSSYWMSWVRQAPGKGLEWVANINQDGSEKYYVDSVKGRFTISRDNAKNSLYLQMNSLRAEDTAVYYCAREGRRTMNAFDIWGQGTMVTVSS VL: DIQMTQSPSSLSASVGDRVTITCRASQSISSYLNWYQQKPGKAPKLLIYGASSLQSGVPSRFSGSGSGTDFTLTISSLQPEDFATYYCQQGYDVPITFGGGTKVEIK ?
RESULT: 811
